target_or_system: DPP IV (Homo sapiens, UniProt P27487)
Sequence (P27487 whole entry, species assumed): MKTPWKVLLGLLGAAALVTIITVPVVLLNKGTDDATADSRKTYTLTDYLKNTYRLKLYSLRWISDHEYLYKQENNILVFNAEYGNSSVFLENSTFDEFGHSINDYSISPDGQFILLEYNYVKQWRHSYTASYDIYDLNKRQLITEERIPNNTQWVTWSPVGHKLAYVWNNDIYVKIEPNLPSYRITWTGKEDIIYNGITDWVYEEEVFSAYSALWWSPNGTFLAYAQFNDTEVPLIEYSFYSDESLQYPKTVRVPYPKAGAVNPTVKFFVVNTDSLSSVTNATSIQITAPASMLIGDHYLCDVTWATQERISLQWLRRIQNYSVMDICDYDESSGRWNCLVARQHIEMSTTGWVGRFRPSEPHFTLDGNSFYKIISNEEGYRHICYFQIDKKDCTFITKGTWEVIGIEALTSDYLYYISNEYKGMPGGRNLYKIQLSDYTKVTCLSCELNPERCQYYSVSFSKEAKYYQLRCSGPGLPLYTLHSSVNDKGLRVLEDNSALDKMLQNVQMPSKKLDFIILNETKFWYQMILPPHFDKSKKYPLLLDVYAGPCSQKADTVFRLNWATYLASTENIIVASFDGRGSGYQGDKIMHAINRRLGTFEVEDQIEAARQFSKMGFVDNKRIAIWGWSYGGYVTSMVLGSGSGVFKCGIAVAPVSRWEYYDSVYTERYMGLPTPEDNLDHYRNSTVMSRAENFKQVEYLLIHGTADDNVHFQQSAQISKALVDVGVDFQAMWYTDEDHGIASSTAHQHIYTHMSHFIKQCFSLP
assay_summary: Stability against DPP IV enzyme
Assay type: in vitro ADME
measurement_conditions: 2 μM peptidomimetic, 37° C., 24 h
Non-standard residues stand in square brackets, D forms with d. Residues, ends and D or L forms follow the SMILES beside them. ξ: configuration not given here. ξNMeBip(2'-Et,4'-OMe) = CCc1cc(OC)ccc1-c1ccc(CC(NC)C(=O)O)cc1; Leu(5,5,5,5',5',5'-F6) = N[C@@H](CC(C(F)(F)F)C(F)(F)F)C(=O)O; ξNMeNva(5-(2-F-Ph)) = CNC(CCCc1ccccc1F)C(=O)O; ξαMePhe(2-F) = CC(N)(Cc1ccccc1F)C(=O)O; NMeD = CN[C@@H](CC(=O)O)C(=O)O; aThr = C[C@H](O)[C@H](N)C(=O)O; Aib = CC(C)(N)C(=O)O
# maps each entry to its % degradation of peptidomimetics in 24 h when incubated with DPP-IV enzyme
measurement_type: % degradation of peptidomimetics in 24 h when incubated with DPP-IV enzyme (%)

INSERT INTO measurements (compound, value_reported) VALUES
  ('CCc1cc(OC)ccc1-c1ccc(CC(NC(=O)[C@H](CC(=O)O)NC(=O)[C@H](CO)NC(=O)[C@@H](NC(=O)C(C)(Cc2ccccc2F)NC(=O)[C@@H](NC(=O)CNC(=O)C(CCC#N)NC(=O)C(C)(C)NC(=O)[C@@H](N)Cc2c[nH]cn2)[C@@H](C)O)[C@H](C)O)C(=O)NC(CCCc2ccccc2F)C(N)=O)cc1 (single isomer, unassigned)', '00'),
  ('CCc1cc(OC)ccc1-c1ccc(CC(NC(=O)[C@H](CC(=O)O)NC(=O)[C@H](CO)NC(=O)[C@@H](NC(=O)[C@H](Cc2ccccc2)NC(=O)[C@@H](NC(=O)CNC(=O)[C@H](CCC(N)=O)NC(=O)C2(NC(=O)[C@@H](N)Cc3c[nH]cn3)CC2)[C@@H](C)O)[C@@H](C)O)C(=O)NC(CCCc2ccc(F)cc2C(F)(F)F)C(N)=O)cc1 (single isomer, unassigned)', 86),
  ('CCc1cc(OC)ccc1-c1ccc(CC(C(=O)N(C)C(CCCc2ccccc2F)C(N)=O)N(C)C(=O)[C@H](CC(=O)O)N(C)C(=O)[C@H](CO)NC(=O)[C@@H](NC(=O)C(C)(Cc2ccccc2F)NC(=O)[C@@H](NC(=O)CNC(=O)[C@H](CC(C(F)(F)F)C(F)(F)F)NC(=O)C(C)(C)NC(=O)[C@@H](N)Cc2c[nH]cn2)[C@H](C)O)[C@H](C)O)cc1 (some centres unmarked) [compound 221] (H-H[Aib][Leu(5,5,5,5'',5'',5''-F6)]G[aThr][ξαMePhe(2-F)][aThr]S[NMeD][ξNMeBip(2''-Et,4''-OMe)][ξNMeNva(5-(2-F-Ph))]-NH2)', '00'),
  ('CCc1cc(OC)ccc1-c1ccc(CC(CNC(CCCc2ccccc2)C(N)=O)NC[C@H](CC(=O)O)NC(=O)[C@H](CO)NC(=O)[C@@H](NC(=O)C(C)(Cc2ccccc2F)NC(=O)[C@@H](NC(=O)CNC(=O)C(CCC#N)NC(=O)C(C)(C)NC(=O)[C@@H](N)Cc2c[nH]cn2)[C@H](C)O)[C@H](C)O)cc1 (single isomer, unassigned)', '00'),
  ('CCc1cc(OC)ccc1-c1ccc(CC(NC(=O)[C@H](CC(=O)O)NC(=O)[C@H](CO)NC(=O)[C@@H](NC(=O)C(C)(Cc2ccccc2F)NC(=O)[C@@H](NC(=O)CNC(=O)C(CCC#N)NC(=O)C(C)(C)NC(=O)[C@@H](N)Cc2c[nH]cn2)[C@H](C)O)[C@H](C)O)C(=O)N(C)C(CCCc2ccccc2F)C(N)=O)cc1 (single isomer, unassigned)', 75);
